Documented Potency across a set of compounds
- tested.system: Glucocorticoid receptor (Homo sapiens) (UniProt P04150)
- Sequence (P04150 whole entry, looked up): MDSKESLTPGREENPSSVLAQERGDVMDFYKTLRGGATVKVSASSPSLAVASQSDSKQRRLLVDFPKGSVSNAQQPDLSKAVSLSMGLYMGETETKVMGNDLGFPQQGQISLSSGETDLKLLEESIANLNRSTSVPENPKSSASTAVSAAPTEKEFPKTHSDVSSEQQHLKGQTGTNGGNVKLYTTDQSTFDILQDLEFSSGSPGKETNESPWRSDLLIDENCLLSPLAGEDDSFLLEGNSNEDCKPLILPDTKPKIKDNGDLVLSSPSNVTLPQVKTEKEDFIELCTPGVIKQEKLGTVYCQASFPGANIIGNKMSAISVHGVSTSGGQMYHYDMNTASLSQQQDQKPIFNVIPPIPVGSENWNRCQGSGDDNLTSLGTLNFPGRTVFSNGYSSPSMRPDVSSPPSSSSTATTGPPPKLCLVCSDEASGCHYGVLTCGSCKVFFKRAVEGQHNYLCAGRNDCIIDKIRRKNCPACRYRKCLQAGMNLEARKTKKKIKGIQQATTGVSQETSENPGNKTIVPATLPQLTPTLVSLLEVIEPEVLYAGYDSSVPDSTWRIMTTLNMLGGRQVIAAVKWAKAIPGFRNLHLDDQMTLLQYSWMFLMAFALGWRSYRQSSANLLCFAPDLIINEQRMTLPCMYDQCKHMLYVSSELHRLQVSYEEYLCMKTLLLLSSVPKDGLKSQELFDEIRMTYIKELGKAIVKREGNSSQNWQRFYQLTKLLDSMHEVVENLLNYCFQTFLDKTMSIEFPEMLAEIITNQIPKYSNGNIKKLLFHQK
- experiment.notes: GR-GFP Redistribution (AID 450); note: potency is the fitted concentration of half-maximal effect
- condition.notes: U2OS GR-GFP nuclear translocation, laser cytometry, 2 h
The source made the active and inactive calls.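 Rule for the calls: active = compounds whose dose series gives a full or clear partial fitted curve of increased nuclear translocation; inconclusive = weak partial curve or effect only at the top dose; inactive = no dose-dependent translocation response.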

smiles.repr: COc1ccc(CNc2ncnc3ccc(-c4ccc(N(C)C)cc4)cc23)c(OC)c1
Potency: > 46 µM (inactive)
//
smiles.repr: COc1cccc(Cn2c(=O)c(-c3cccs3)nc3cnc(N4CCN(C)CC4)nc32)c1
Potency: > 9.22 µM (inactive)
//
smiles.repr: CCNc1ncc2nc(-c3cn(C)c4ccccc34)c(=O)n(CCC#N)c2n1
Potency: > 9.22 µM (inactive)
//
smiles.repr: COc1ccc(Oc2ncc3nc(-c4cc(F)cc(F)c4)c(=O)n(C)c3n2)cc1
Potency: > 9.22 µM (inactive)
//
smiles.repr: CS(=O)(=O)Nc1cccc(-c2ccc3ncnc(NCc4cccs4)c3c2)c1
Potency: > 46 µM (inactive)
